Assign viability to each entry below.
assay: reversal of MRP1-mediated doxorubicin resistance, pilot screen, H69AR cells, doxorubicin co-treatment (AID 601); conditions: H69AR cells, CellTiter-Glo, 72 h; compound alone cytotoxicity; at 10 µM
Write the answer as a number in %, unit excluded.

Incoming: State the recorded viability for this entry: O=C(CSc1nnc(-c2cnccn2)n1Cc1ccco1)c1ccc(Cl)cc1
Outgoing: 80.7

Incoming: And for CN(C)C(=O)CSc1nnc2sc3ccccc3n12 ?
Outgoing: 89.2

Incoming: And for O=C1c2ccccc2C(Nc2ccc3nc(-c4cccnc4)[nH]c3c2)N1Cc1ccco1 (centres undefined) ?
Outgoing: 91.2

Incoming: And for CCCS(=O)(=O)N1CCCC(C(=O)NC2CCCC(C)C2C)C1 (centres undefined) ?
Outgoing: 94.8
